settings: PAMPA
Where a SMILES comes first, the peptide text is derived from it. [ ]: non-standard residue; d: D form. NMeF = CN[C@@H](Cc1ccccc1)C(=O)O; dNMeL = CN[C@H](CC(C)C)C(=O)O
Items are presented alongside their recorded PAMPA_R3.
Reply with the value as a number alone.

// worked examples, PAMPA_R3 included
molecule | PAMPA_R3
CC(C)C[C@@H]1C(=O)N[C@H](CC(C)C)C(=O)N2CCC[C@@H]2C(=O)N2CCC[C@H]2C(=O)N(C)[C@H](CC(C)C)C(=O)N[C@H](CC(C)C)C(=O)N2CCC[C@@H]2C(=O)N2CCC[C@H]2C(=O)N1C [Design D8.4, DPRO PRO *DLEU DLEU DPRO PRO *DLEU DLEU] (cyclo([dNMeL][dL][dP]P[dNMeL][dL][dP]P)) | 1.12E-07
CC(C)C[C@@H]1NC(=O)[C@H](Cc2ccccc2)NC(=O)[C@@H](CC(C)C)NC(=O)[C@H]2CCCN2C(=O)[C@H](C(C)C)NC(=O)[C@@H](CC(C)C)NC(=O)[C@H]2CCCN2C(=O)[C@@H]2CCCN2C1=O [Design D8.5.p2, PHE LEU PRO DPRO DLEU VAL DPRO DLEU] (cyclo(FLP[dP][dL]V[dP][dL])) | 5.67E-06

Recorded PAMPA_R3 of CC[C@H](C)[C@@H]1NC(=O)[C@H]2CCCN2C(=O)[C@@H]2CCCN2C(=O)[C@H](C(C)C)NC(=O)[C@@H](C(C)C)NC(=O)[C@H](Cc2ccccc2)N(C)C(=O)[C@H]2CCCN2C(=O)[C@@H](CC(C)C)N(C)C(=O)[C@@H](CC(C)C)NC1=O [Design D9.42] (cyclo(I[dL][dNMeL][dP][NMeF][dV]VP[dP])) , please. 1.07E-06

---

assay_notes: Pharmacokinetics and oral bioavailability of D11.2 in male SD rats (IV, PO, SQ)
Assay type: in vivo
settings: male, Sprague Dawley, rat, plasma, iv, 1 mg/kg, IV 1 mg/kg, Mean; read-out: Vz
Where a SMILES comes first, the peptide text is derived from it. [ ]: non-standard residue; d: D form. NMeL = CN[C@@H](CC(C)C)C(=O)O; Sar = CNCC(=O)O
outcome_measure: Vd (L/kg)
Response body: numeric value in L/kg, unit text excluded.

Recorded Vd of CC[C@@H](C)[C@H]1NC(=O)[C@@H]2CCCN2C(=O)[C@@H]([C@H](C)CC)NC(=O)CN(C)C(=O)[C@H](CC(C)C)NC(=O)[C@@H](Cc2ccccc2)NC(=O)[C@H](CC(C)C)N(C)C(=O)[C@H]2CCCN2C(=O)[C@@H](CC(C)C)NC(=O)[C@H](CC(C)C)NC(=O)[C@H]2CCCN2C1=O [Design D11.2] (cyclo(L[Sar][dI]P[dI][dP]L[dL][dP][NMeL][dF])) , please. 4.24

---

assay_notes: Pharmacokinetics and oral bioavailability of D11.2 in male SD rats (IV, PO, SQ)
Type: in vivo
settings: male, Sprague Dawley, rat, plasma, po, 1 mg/kg, PO 1 mg/kg, individual rats R4, R5, R6; read-out: Cmax
Where a SMILES comes first, the peptide text is derived from it. [ ]: non-standard residue; d: D form. NMeL = CN[C@@H](CC(C)C)C(=O)O; Sar = CNCC(=O)O
outcome_measure: Cmax (ng/mL)
Response body: numeric value in ng/mL, unit text excluded.

Recorded Cmax of CC[C@@H](C)[C@H]1NC(=O)[C@@H]2CCCN2C(=O)[C@@H]([C@H](C)CC)NC(=O)CN(C)C(=O)[C@H](CC(C)C)NC(=O)[C@@H](Cc2ccccc2)NC(=O)[C@H](CC(C)C)N(C)C(=O)[C@H]2CCCN2C(=O)[C@@H](CC(C)C)NC(=O)[C@H](CC(C)C)NC(=O)[C@H]2CCCN2C1=O [Design D11.2] (cyclo(L[Sar][dI]P[dI][dP]L[dL][dP][NMeL][dF])) , please. 31.3
